experiment: Brain penetration and plasma/brain pharmacokinetics in combination with Temodar or Lynparza; details: mouse, plasma, oral, Plasma Conc, Temador 125 mg/kg PO + LMP400 10 mg/kg IV, 0.5 h
MEASURED_ENDPOINT: concentration at 0.5 h (µM)
Record the value in µM, omitting the unit from your answer.

Prompt: Give the value of concentration at 0.5 h reported for the following: Cn1nnc2c(C(N)=O)ncn2c1=O [Temadar]
Completion: 389

----------
tested on: MDA-MB-231; test: MTS GI50, Myc-dependent panel; assay type: cell-based; conditions: Homo sapiens, MDA-MB-231, 72 h; read-out: GI50
MEASURED_ENDPOINT: GI50

ITEM_SMILES	GI50
COc1cc2c3c(n(CCCNCCO)c(=O)c2cc1OC)-c1nc2c(cc1C3=O)OCO2	806 nM
COc1cc2c3c(n(CCCNC(C)C)c(=O)c2cc1OC)-c1nc2c(cc1C3=O)OCO2	644 nM
CCNCCCn1c2c(c3cc(OC)c(OC)cc3c1=O)C(=O)c1cc3c(nc1-2)OCO3	476 nM

Prompt: Report measured GI50 on MDA-MB-231; entry: "CC[C@@]1(O)C(=O)OCc2c1cc1n(c2=O)Cc2cc3ccccc3nc2-1"
Completion: 37 nM

Prompt: Report measured GI50 on MDA-MB-231; entry: "COc1cc2c3c(n(CCCN4CCOCC4)c(=O)c2cc1OC)-c1cc2c(cc1C3=O)OCO2"
Completion: 1900 nM

Prompt: Report measured GI50 on MDA-MB-231; entry: "COc1cc2c3c(n(CCCN4CCOCC4)c(=O)c2cc1OC)-c1nc2c(cc1C3=O)OCO2"
Completion: > 2000 nM

Prompt: Report measured GI50 on MDA-MB-231; entry: "COc1cc2c3c(n(CCCn4ccnc4)c(=O)c2cc1OC)-c1nc2c(cc1C3=O)OCO2"
Completion: 1050 nM

Prompt: Report measured GI50 on MDA-MB-231; entry: "COc1cc2c3c(n(CCCn4ccnc4)c(=O)c2cc1OC)-c1cc2c(cc1C3=O)OCO2"
Completion: 329 nM

----------
assay: in vivo; conditions: male, CD1, mouse, iv, 20 mg/kg
MEASURED_ENDPOINT: half-life

Prompt: Give the value of half-life reported for the following: "CCNCCCn1c2c(c3cc(OC)c(OC)cc3c1=O)C(=O)c1cc3c(nc1-2)OCO3"
Completion: 7.06 h

----------
test: Brain penetration and plasma/brain pharmacokinetics in combination with Temodar or Lynparza; details: mouse, brain, oral, Brain Conc, Temador 125 mg/kg PO + LMP400 10 mg/kg IV, 0.25 h
MEASURED_ENDPOINT: concentration at 0.25 h (µM)
Record the value in µM, omitting the unit from your answer.

Prompt: Give the value of concentration at 0.25 h reported for the following: "Cn1nnc2c(C(N)=O)ncn2c1=O"
Completion: 86.6

----------
assay: Brain penetration and plasma/brain pharmacokinetics in combination with Temodar or Lynparza; details: plasma, LMP400 10 mg/kg IV + Temador 125 mg/kg PO
MEASURED_ENDPOINT: AUClast/D (h·ng/mL per mg/kg)
Record the value in h·ng/mL per mg/kg, omitting the unit from your answer.

Prompt: Give the value of AUClast/D reported for the following: "COc1cc2c3c(n(CCCN4CCOCC4)c(=O)c2cc1OC)-c1cc2c(cc1C3=O)OCO2"
Completion: 582

----------
tested on: Caco-2 cells; assay: Caco-2 permeability; assay type: in vitro ADME; conditions: Caco-2
Param label: returns condition met when Recovery (%)BL-AP < 90%, returns condition not met otherwise, including exact equality.

MOLECULE	EXPERIMENTAL_TARGET	CATEGORY
COc1cc2c3c(n(CCCNCCO)c(=O)c2cc1OC)-c1nc2c(cc1C3=O)OCO2	Caco-2 cells	condition not met

Prompt: Answer whether the molecule CC(C)NCC(O)COc1cccc2ccccc12 (stereo not drawn) has Recovery (%)BL-AP strictly less than 90%
Completion: condition not met

Prompt: Answer whether the molecule "C[C@H]1O[C@@H](O[C@H]2[C@@H](O)C[C@H](O[C@H]3[C@@H](O)C[C@H](O[C@H]4CC[C@@]5(C)[C@H](CC[C@@H]6[C@@H]5C[C@@H](O)[C@]5(C)[C@@H](C7=CC(=O)OC7)CC[C@]65O)C4)O[C@@H]3C)O[C@@H]2C)C[C@H](O)[C@@H]1O" has Recovery (%)BL-AP strictly less than 90%
Completion: condition not met

----------
tested on: UACC-62 (Melanoma); test: NCI-60 cytotoxicity assay; format: cell-based, human; details: Homo sapiens; UACC-62 melanoma; 48 h, sulforhodamine B; read-out: Comparative Cytotoxicity GI50, Melanoma UACC-62
In this section, each of the molecules is paired with its reported log10 GI50.
# log10 transformed; quantity=GI50; unit=nM

Illustrative cases are given below, each with its answer.
ITEM_SMILES	MEASURED_ENDPOINT	TEST_RESULT
COc1cc2c3c(n(CCCNCC4CC4)c(=O)c2cc1OC)-c1cc2c(cc1C3=O)OCO2	log10 GI50	3.46
COc1cnc2c(c1)C(=O)c1c-2n(CCCNCCO)c(=O)c2cc(OC)c(OC)cc12	log10 GI50	3.07
COc1cnc2c(c1)C(=O)c1c-2n(CCCNC(C)C)c(=O)c2cc(OC)c(OC)cc12	log10 GI50	3.39
COc1cnc2c(c1)C(=O)c1c-2n(CCCNCC2CC2)c(=O)c2cc(OC)c(OC)cc12	log10 GI50	2.92

Prompt: Report measured log10 GI50 on UACC-62 (Melanoma); entry: "COc1cc2c3c(n(CCCNC4CCCC4)c(=O)c2cc1OC)-c1cc2c(cc1C3=O)OCO2"
Completion: 4.11

Prompt: Report measured log10 GI50 on UACC-62 (Melanoma); entry: "CCNCCCn1c2c(c3cc(OC)c(OC)cc3c1=O)C(=O)c1cc(OC)cnc1-2"
Completion: 2.85

Prompt: Report measured log10 GI50 on UACC-62 (Melanoma); entry: "COc1cc2c3c(n(CCCN4CCC[C@H]4C(N)=O)c(=O)c2cc1OC)-c1cc2c(cc1C3=O)OCO2"
Completion: 1.32

Prompt: Report measured log10 GI50 on UACC-62 (Melanoma); entry: "COc1cc2c3c(n(CCCNC4CCCCC4)c(=O)c2cc1OC)-c1cc2c(cc1C3=O)OCO2"
Completion: 4.45

Prompt: Report measured log10 GI50 on UACC-62 (Melanoma); entry: "COc1cc2c3c(n(CCCN4CCCC4)c(=O)c2cc1OC)-c1cc2c(cc1C3=O)OCO2"
Completion: 3.17

Prompt: Report measured log10 GI50 on UACC-62 (Melanoma); entry: "COc1cc2c3c(n(CCCNC4CCC4)c(=O)c2cc1OC)-c1cc2c(cc1C3=O)OCO2"
Completion: 3.15

Prompt: Report measured log10 GI50 on UACC-62 (Melanoma); entry: "COc1cnc2c(c1)C(=O)c1c-2n(CCCn2ccnc2)c(=O)c2cc(OC)c(OC)cc12"
Completion: 1.60

Prompt: Report measured log10 GI50 on UACC-62 (Melanoma); entry: "COc1cc2c3c(n(CCCN4CCCCC4)c(=O)c2cc1OC)-c1cc2c(cc1C3=O)OCO2"
Completion: 3.14

----------
system: OVCAR-3 (Ovarian); experiment: NCI-60 cytotoxicity assay; type: cell-based, human; details: Ovarian OVCAR-3, 48 h; read-out: Cytotoxicity GI50
MEASURED_ENDPOINT: GI50 (µM)
Record the value in µM, omitting the unit from your answer.

Prompt: Give the value of GI50 reported for the following: "COc1cc2c3c(n(CCCNCCO)c(=O)c2cc1OC)-c1nc2c(cc1C3=O)OCO2"
Completion: 5.65

----------
system: KMS-27; test: MTS GI50, Myc-dependent panel; type: cell-based; conditions: KMS-27, 72 h; read-out: GI50
MEASURED_ENDPOINT: GI50 (µM)
Record the value in µM, omitting the unit from your answer.

Illustrative cases are given below, each with its answer.
COMPOUND	MEASURED_ENDPOINT	UNIT_TAG	TEST_RESULT
CC[C@@]1(O)C(=O)OCc2c1cc1n(c2=O)Cc2cc3ccccc3nc2-1 [CPT, Camptothecin]	GI50	µM	0.013
COc1cc2c3c(n(CCCn4ccnc4)c(=O)c2cc1OC)-c1cc2c(cc1C3=O)OCO2 [LMP776, indimitecan]	GI50	µM	0.127
COc1cc2c3c(n(CCCNC(C)C)c(=O)c2cc1OC)-c1nc2c(cc1C3=O)OCO2 [G103]	GI50	µM	0.206

As a next step, examine the compound that follows.
Prompt: Report measured GI50 on KMS-27; entry: COc1cc2c3c(n(CCCN4CCOCC4)c(=O)c2cc1OC)-c1nc2c(cc1C3=O)OCO2 [G101]
Completion: 0.53

Origin of the recorded values: patent US20240287089A1
